System: HeLa
Run description: Proliferation assay (crystal violet), HeLa
Type: cell-based
Conditions used: Homo sapiens, HeLa, 96 h, HeLa cells; 4 days incubation; crystal violet staining; read-out: IC50 inhibition of proliferation, HeLa
Rule for this label: TRUE means IC50 is less than 800 nM; FALSE means IC50 is at least 800 nM.

Some entries whose results are on file:
{"Compound": "Cc1nsc(Nc2cnc(C(F)(F)F)cn2)c1C(=O)Nc1ccc(OC[C@@H]2CCN(CCC(F)(F)F)C2)nc1", "Discrete label": "TRUE"}
{"Compound": "CCN1CCC(Oc2ccc(NC(=O)c3c(C)nsc3Nc3cnc(C(F)(F)F)cn3)cn2)C(F)(F)C1 (stereo not shown)", "Discrete label": "TRUE"}
{"Compound": "Cc1nsc(Nc2cncc(C(F)(F)F)n2)c1C(=O)Nc1ccc(C(=O)NCCN2CCCC(F)C2)cc1 (stereo not shown)", "Discrete label": "FALSE"}
{"Compound": "Cc1nsc(Nc2cnc3ccccc3n2)c1C(=O)Nc1cccc(C(=O)N2CCN(c3cnccn3)CC2)c1", "Discrete label": "FALSE"}
{"Compound": "Cc1nsc(Nc2cnc3ccccc3n2)c1C(=O)Nc1cccc(N)c1", "Discrete label": "FALSE"}

Consider now this further compound.
Q: Is the reported IC50 for `Cc1nsc(Nc2cnc(C(F)(F)F)cn2)c1C(=O)Nc1ccc(F)c(OCC2CCN(C(CF)CF)CC2)c1` strictly below 800 nM?
Ans: TRUE

###

Test system: HeLa
Run description: Proliferation assay (crystal violet), HeLa
Assay type: cell-based
Conditions used: Homo sapiens, HeLa, 96 h, HeLa cells; 4 days incubation; crystal violet staining; read-out: IC50 inhibition of proliferation, HeLa
Experimental: Cultivated tumor cells (cells were ordered from ATCC, except HeLa-MaTu and HeLa-MaTu-ADR, which were ordered from EPO-GmbH, Berlin) were plated at a density of 1000 to 5000 cells/well, depending on the growth rate of the respective cell line, in a 96-well multititer plate in 200 μL of their respective growth medium supplemented 10% fetal calf serum. […] Absorbtion was determined by photometry at a wavelength of 595 nm. […] The IC50 values were determined by means of a 4 parameter fit.
Rule for this label: class 1 means IC50 is less than 4 µM; class 0 means IC50 is at least 4 µM.

Some entries whose results are on file:
{"Compound": "Cc1nsc(Nc2cnc3ccccc3n2)c1C(=O)Nc1cccc(C(=O)N2CCN(c3cccc(F)c3)CC2)c1 [Example 87]", "Discrete label": "class 0"}
{"Compound": "Cc1nsc(Nc2cncc(C(F)(F)F)n2)c1C(=O)Nc1ccc(C(=O)N2CCN(CC(F)F)CC2)cc1 [Example 273]", "Discrete label": "class 0"}
{"Compound": "Cc1nsc(Nc2cnc(C(F)(F)F)cn2)c1C(=O)Nc1ccc(F)c(OCC2CCN(CCF)CC2)c1 [Example 309]", "Discrete label": "class 1"}

Q: Is the reported IC50 for Cc1nsc(Nc2cnc3ccccc3n2)c1C(=O)Nc1cccc(C(=O)OC(C)(C)C)c1 [Example 49] strictly below 4 µM?
Ans: class 1

###

Target under test: human kinase Mps-1 (Homo sapiens, UniProt P33981)
Construct: N-terminally GST-tagged human full length recombinant Mps-1 kinase; GST (N)
Sequence (P33981 whole entry): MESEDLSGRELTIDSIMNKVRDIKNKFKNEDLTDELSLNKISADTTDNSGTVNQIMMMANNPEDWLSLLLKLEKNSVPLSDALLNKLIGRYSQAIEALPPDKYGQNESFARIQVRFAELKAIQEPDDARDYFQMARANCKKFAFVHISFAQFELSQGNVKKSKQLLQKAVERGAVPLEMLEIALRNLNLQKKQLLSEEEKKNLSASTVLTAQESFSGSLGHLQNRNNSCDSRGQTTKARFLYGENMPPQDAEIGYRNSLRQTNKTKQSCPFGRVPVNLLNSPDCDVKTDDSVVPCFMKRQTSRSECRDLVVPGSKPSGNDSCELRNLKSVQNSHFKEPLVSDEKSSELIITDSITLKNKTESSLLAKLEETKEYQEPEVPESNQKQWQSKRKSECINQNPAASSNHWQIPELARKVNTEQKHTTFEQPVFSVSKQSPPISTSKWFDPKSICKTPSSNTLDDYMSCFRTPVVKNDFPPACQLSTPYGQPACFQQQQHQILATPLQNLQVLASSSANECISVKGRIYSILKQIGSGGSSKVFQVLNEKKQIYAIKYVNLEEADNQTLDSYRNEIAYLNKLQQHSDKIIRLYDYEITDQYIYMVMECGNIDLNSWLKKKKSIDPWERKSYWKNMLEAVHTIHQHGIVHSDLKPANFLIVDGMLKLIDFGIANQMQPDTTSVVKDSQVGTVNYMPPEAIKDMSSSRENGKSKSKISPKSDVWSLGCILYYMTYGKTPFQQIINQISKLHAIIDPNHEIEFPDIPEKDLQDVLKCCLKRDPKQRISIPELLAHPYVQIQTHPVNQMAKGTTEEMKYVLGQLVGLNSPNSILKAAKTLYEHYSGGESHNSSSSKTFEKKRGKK
Run description: Mps-1 kinase assay (TR-FRET)
Conditions used: Mps-1 TR-FRET kinase assay; avg; read-out: Mps1 avg (IC50 [mol/l])
Description: The human kinase Mps-1 phosphorylates a biotinylated substrate peptide. Detection of the phosphorylated product is achieved by time-resolved fluorescence resonance energy transfer (TR-FRET) from Europium-labelled anti-phospho-Serine/Threonine antibody as donor to streptavidin labelled with cross-linked allophycocyanin (SA-XLent) as acceptor. Compounds are tested for their inhibition of the kinase activity. […]
Measured endpoint: IC50

{"Molecule": "Cc1nsc(Nc2cnc(C(F)(F)F)cn2)c1C(=O)Nc1ccc(F)c(OCC2CCCN(CCC(F)(F)F)C2)c1 (stereo not shown) [Example 338]", "Target under test": "human kinase Mps-1 (Homo sapiens, UniProt P33981)", "Measured endpoint": "IC50", "Value measured": "≥ 20 µM"}
{"Molecule": "Cc1nsc(Nc2cnc3ccccc3n2)c1C(=O)Nc1cccc(NC(=O)OC(C)(C)C)c1 [Example 178]", "Target under test": "human kinase Mps-1 (Homo sapiens, UniProt P33981)", "Measured endpoint": "IC50", "Value measured": "> 20 µM"}
{"Molecule": "Cc1nsc(Nc2cnc(C(F)(F)F)cn2)c1C(=O)Nc1ccc(N2CCN(CC(F)(F)F)CC2)nc1 [Example 360]", "Target under test": "human kinase Mps-1 (Homo sapiens, UniProt P33981)", "Measured endpoint": "IC50", "Value measured": "> 20 µM"}
{"Molecule": "Cc1nsc(Nc2cnc(C(F)(F)F)cn2)c1C(=O)Nc1ccc(N2CCN(CCC(F)(F)F)CC2)nc1 [Example 361]", "Target under test": "human kinase Mps-1 (Homo sapiens, UniProt P33981)", "Measured endpoint": "IC50", "Value measured": "> 20 µM"}
{"Molecule": "Cc1nsc(Nc2cnc(C(F)(F)F)cn2)c1C(=O)Nc1ccc(F)c(OCC2CCN(CC(F)(F)F)C2)c1 (stereo not shown) [Example 318]", "Target under test": "human kinase Mps-1 (Homo sapiens, UniProt P33981)", "Measured endpoint": "IC50", "Value measured": "> 20 µM"}
{"Molecule": "Cc1nsc(Nc2cncc(C(F)(F)F)n2)c1C(=O)Nc1ccc(OC2CCN(C)CC2)nc1 [Example 219]", "Target under test": "human kinase Mps-1 (Homo sapiens, UniProt P33981)", "Measured endpoint": "IC50", "Value measured": "> 20 µM"}

Q: // IC50 lookup, key: Cc1nsc(Nc2cnc(C(F)(F)F)cn2)c1C(=O)Nc1ccc(OC2CCN(C(=O)OC(C)(C)C)CC2)nc1 [Example 5]
Ans: ≥ 20 µM

###

Target under test: human kinase Mps-1 (Homo sapiens, UniProt P33981)
Construct: N-terminally GST-tagged human full length recombinant Mps-1 kinase; GST (N)
Run description: Mps-1 kinase assay (TR-FRET)
Conditions used: Mps-1 TR-FRET kinase assay; avg; read-out: Mps1 avg (IC50 [mol/l])
Measured endpoint: IC50

{"Compound": "Cc1nsc(Nc2cnc3ccccc3n2)c1C(=O)Nc1cccc(C(=O)N[C@H](C(=O)O)[C@@H](C)O)c1 [Example 105]", "IC50": "6.5 µM"}

Q: // IC50 lookup, key: Cc1nsc(Nc2cnc3ccccc3n2)c1C(=O)Nc1cccc(NC(=O)C(C)(C)C)c1 [Example 186]
Ans: > 20 µM

Q: Then Cc1nsc(Nc2cnc3ccccc3n2)c1C(=O)Nc1ccc(OCCC(=O)OC(C)(C)C)nc1 [Example 198] ?
Ans: 4.6 µM

Q: Then Cc1nsc(Nc2cnc3ccccc3n2)c1C(=O)Nc1ccc(OCCCNC(=O)OC(C)(C)C)nc1 [Example 42] ?
Ans: ≥ 20 µM

Q: Then Cc1nsc(Nc2cc(C#N)ccn2)c1C(=O)Nc1ccc(OC2CCN(CC(F)(F)F)CC2)nc1 [Example 25] ?
Ans: ≥ 20 µM

Q: Then Cc1nsc(Nc2cnc(C(F)(F)F)cn2)c1C(=O)Nc1ccc(O[C@H]2CCN(CC(F)F)C[C@H]2F)nc1 [Example 144] ?
Ans: > 20 µM

Q: Then Cc1nsc(Nc2cc(C#N)ccn2)c1C(=O)Nc1cccc(C(=O)OC(C)(C)C)c1 [Example 239] ?
Ans: > 20 µM

Q: Then CCNC(=O)c1cccc(NC(=O)c2c(C)nsc2Nc2cnc3ccccc3n2)c1 [Example 251] ?
Ans: > 20 µM

Q: Then Cc1nsc(Nc2cncc(C(F)(F)F)n2)c1C(=O)Nc1ccc(C(=O)NCCN2CCCC(F)(F)C2)cc1 [Example 214] ?
Ans: > 20 µM

Q: Then Cc1nsc(Nc2cnc(C(F)(F)F)cn2)c1C(=O)Nc1ccc(OCCNCCF)nc1 [Example 321] ?
Ans: ≥ 20 µM

Q: Then COC(=O)CCc1cccc(NC(=O)c2c(C)nsc2Nc2ccc(C#N)cn2)c1 [Example 176] ?
Ans: > 20 µM

Q: Then Cc1nsc(Nc2cc(C#N)ccn2)c1C(=O)Nc1ccc(OCCC(=O)OC(C)(C)C)nc1 [Example 200] ?
Ans: > 20 µM

###

Tested on: HeLa-MaTu-ADR
Run description: Proliferation assay (crystal violet), HeLa-MaTu-ADR
Type: cell-based
Conditions used: 96 h; HeLa-MaTu-ADR cells; 4 days incubation; crystal violet staining; read-out: IC50 inhibition of proliferation, HeLa-MaTu-ADR
Examples of molecules with documented IC50 follow.
Write down the numeric answer in µM and omit the unit.

{"Molecule": "Cc1nsc(Nc2cnc3ccccc3n2)c1C(=O)Nc1ccc(OC2CCN(CC(F)(F)F)CC2)nc1", "IC50 [µM]": 0.88}
{"Molecule": "Cc1nsc(Nc2cnc(C(F)(F)F)cn2)c1C(=O)Nc1ccc(OC2CCN(CC(F)(F)F)CC2)nc1", "IC50 [µM]": 0.13}
{"Molecule": "Cc1nsc(Nc2ccc(C#N)cn2)c1C(=O)Nc1ccc(OC2CCCN(CC(F)(F)F)C2)nc1 (stereo not shown)", "IC50 [µM]": 0.32}

The record that follows has no IC50 shown yet.
Q: // IC50 lookup, key: `Cc1nsc(Nc2ccc(C#N)cn2)c1C(=O)Nc1ccc(OC2CCN(CC(F)(F)F)CC2)nc1`
Ans: 0.23
